The values you see were collected from paper PMC6158096.

Tested on: ComR;sXIP (ComS 11-17) (Streptococcus mutans UA159;Streptococcus mutans)
Test: fluorescence polarization
observable: Kd

construct_sequence="ATGGGACATTTATGTCCTGTCCCCCACAGGACATAAATGTCCCAT [PcomX ECom-box stem-loop probe]" result="147 nM"
